The reported measurements were obtained from patent US20100292205A1.

testTarget: Recombinant human GSK3β (Homo sapiens)
Construct: His-tag; made in house; host or cells: Sf9 insect cells / baculovirus
assayInfo: GSK-3β (Glycogen Synthase Kinase) cell free enzyme assay
Type: biochemical
conditionsUsed: cell free enzyme assay; Examples 265-291
Decide using IC50 alone. Strictly below 20 nM: y. Equal to or above 20 nM: n.

Known results for compounds:
[
  {
    "lineNotation": "CN(c1nc(-c2ccncc2F)cc(=O)n1C)[C@H]1[C@@H]2CN(c3nnnn3Cc3ccc(C#N)cc3)C[C@@H]21",
    "labelClass": "y"
  },
  {
    "lineNotation": "CCc1cn2nc(N3C[C@@H]4[C@H](C3)[C@H]4N(C)c3nc(-c4ccncc4F)cc(=O)n3C)ccc2n1",
    "labelClass": "n"
  },
  {
    "lineNotation": "CCOC(=O)c1cccc(-n2nnnc2N2C[C@@H]3[C@H](C2)[C@H]3N(C)c2nc(-c3ccncc3F)cc(=O)n2C)c1",
    "labelClass": "y"
  },
  {
    "lineNotation": "CN(c1nc(-c2ccncc2F)cc(=O)n1C)[C@H]1[C@@H]2CN(c3nc4ccc(F)cc4n3C)C[C@@H]21",
    "labelClass": "y"
  }
]

Challenge: I'd appreciate it if you could check whether CN(c1nc(-c2ccncc2F)cc(=O)n1C)[C@H]1[C@@H]2CN(c3nnnn3CC3CC3)C[C@@H]21 has IC50 smaller than 20 nM.
Response given: y

* * *

testTarget: Recombinant human GSK3β (Homo sapiens, UniProt P49841)
Construct: His-tag; made in house; host or cells: Sf9 insect cells / baculovirus
Sequence (P49841 whole entry): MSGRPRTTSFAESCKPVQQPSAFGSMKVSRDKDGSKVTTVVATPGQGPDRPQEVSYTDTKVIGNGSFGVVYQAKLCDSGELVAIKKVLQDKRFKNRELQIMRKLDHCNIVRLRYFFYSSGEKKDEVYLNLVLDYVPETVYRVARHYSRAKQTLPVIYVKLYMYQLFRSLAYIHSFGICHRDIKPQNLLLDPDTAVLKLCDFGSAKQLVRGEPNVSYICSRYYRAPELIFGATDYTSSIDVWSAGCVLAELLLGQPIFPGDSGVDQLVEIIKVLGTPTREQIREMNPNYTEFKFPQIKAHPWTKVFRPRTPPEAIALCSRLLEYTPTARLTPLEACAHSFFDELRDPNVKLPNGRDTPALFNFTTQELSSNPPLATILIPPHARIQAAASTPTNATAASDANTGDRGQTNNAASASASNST
assayInfo: GSK-3β (Glycogen Synthase Kinase) cell free enzyme assay
Type: biochemical
conditionsUsed: 1 μM; Examples 157-199; read-out: Percent inhibition at 1 μM
measuredProperty: inhibition at 1 µM (%)
Please respond with the number in % and leave the unit unwritten.

Query CCN(c1nc(-c2ccncc2)cc(=O)n1C)C1CCCN(S(C)(=O)=O)C1 (stereo not drawn) yields inhibition at 1 µM of 82

Form field inhibition at 1 µM, entry CN(c1nc(-c2ccncc2)cc(=O)n1C)C1CCN(S(C)(=O)=O)C1 (stereo not drawn) : 79

Memo: Cn1c(N2CC[C@@H]3CN(S(=O)(=O)c4ccccc4)C[C@@H]32)nc(-c2ccncc2)cc1=O , reported inhibition at 1 µM: 81

For this compound ( Cn1c(NC[C@H]2CCCN2S(C)(=O)=O)nc(-c2ccncc2)cc1=O ), measured inhibition at 1 µM is 78

# inhibition at 1 µM (compound: CCN(c1nc(-c2ccncc2)cc(=O)n1C)C1CCN(S(C)(=O)=O)CC1 ) is 80

Form: compound = Cn1c(NC2CCCN(S(=O)(=O)Cc3ccccc3)CC2)nc(-c2ccncc2)cc1=O (stereo not drawn) ; inhibition at 1 µM = 81

* * *

testTarget: Recombinant human GSK3β (Homo sapiens, UniProt P49841)
Construct: His-tag; made in house; host or cells: Sf9 insect cells / baculovirus
assayInfo: GSK-3β (Glycogen Synthase Kinase) cell free enzyme assay
Format: biochemical
conditionsUsed: 1 μM; Examples 236-262; read-out: Percent inhibition at 1 μM
Form field: inhibition at 1 µM (one value per entry).

Example entries begin here.
[
  {
    "compound": "CN1CCCC(Nc2nc(-c3ccncc3)cc(=O)n2C)CC1 (stereo not drawn)",
    "inhibition at 1 µM": "72%"
  },
  {
    "compound": "CCN(c1nc(-c2ccncc2)cc(=O)n1C)C1CCN(Cc2ccccc2)C1 (stereo not drawn)",
    "inhibition at 1 µM": "71%"
  }
]

Read the next record carefully.
response.value for Cn1c(NCC2CCN(Cc3ccccc3)C2)nc(-c2ccncc2)cc1=O (stereo not drawn) (field: inhibition at 1 µM) = 70%
